Tested on: CCRF-CEM leukemia
Assay: NCI-60 one-dose screen, 48 h
Conditions: 10 µM unless noted
About 83,000 compounds went through this panel and 20% of them were active in at least one assay; those are over-represented in the sample as a whole. Active and inactive are the calls of the source. Rule for the calls: active = growth percent below 10; inactive = the rest.
# output must be one of active, inactive

# compound, measured_on, class_assignment
rows = [
    ("O=C1C=Cc2ncccc2C1=O", "CCRF-CEM leukemia", "active"),
    ("COc1ccc(-c2cc(-c3cccs3)n(N=O)c(=O)c2C#N)cc1", "CCRF-CEM leukemia", "inactive"),
    ("O=S(=O)(NCCCNc1cc(-c2cn(-c3ccccc3)nc2-c2cccc(O)c2)ccn1)c1ccc(F)cc1", "CCRF-CEM leukemia", "inactive"),
    ("COc1cnc2c(c1)C(=O)c1c-2n(CCCNC(C)C)c(=O)c2cc([N+](=O)[O-])ccc12", "CCRF-CEM leukemia", "active"),
    ("C=COCCCCCCCCCCCCCCCCCC", "CCRF-CEM leukemia", "inactive"),
    ("Cc1cc(N(CCNc2ccnc3cc(Cl)ccc23)Cc2ccco2)nc(Cl)n1", "CCRF-CEM leukemia", "active"),
]

Lab note: next compound to report on.
Challenge: Identify the outcome logged in this assay for the compound shown: Cc1nn2c(-c3nc4cc(Cl)c(Cl)cc4[nH]3)c(-c3ccc(F)cc3)nc2s1
Response given: inactive

meta.source: PubChem BioAssay (NCI)
